Numbers sourced from patent US7368471B2.

In this section we review reported melting point values for a set of compounds.

[
  {
    "SMILES_RECORD": "Cc1ccc(Cn2cc(C(=O)C(=O)O)c3cc(-c4ccccc4)ccc32)cc1",
    "melting point": "195 to 196 °C"
  },
  {
    "SMILES_RECORD": "CC(C)(C)c1ccc(-c2ccc3c(c2)c(C(=O)C(=O)O)cn3Cc2ccccc2)cc1",
    "melting point": "210 to 211 °C (dec.)"
  },
  {
    "SMILES_RECORD": "CCCCn1cc(C(=O)C(=O)O)c2cc(-c3ccc(OC)cc3)ccc21",
    "melting point": "172 to 173 °C"
  },
  {
    "SMILES_RECORD": "CCn1cc(C(=O)C(=O)O)c2ccc(-c3ccc(OC(F)(F)F)cc3)cc21",
    "melting point": "204 to 205 °C"
  },
  {
    "SMILES_RECORD": "Cc1ccc(Cn2cc(CC(=O)O)c3cc(-c4ccc(OC(F)(F)F)cc4)ccc32)cc1",
    "melting point": "62 to 63 °C"
  },
  {
    "SMILES_RECORD": "O=C(O)C(=O)c1cn(Cc2ccccc2)c2ccc(-c3ccc(C(F)(F)F)cc3)cc12",
    "melting point": "201 to 202 °C (dec.)"
  },
  {
    "SMILES_RECORD": "O=C([O-])C(=O)c1c(CO)n(Cc2ccccc2)c2ccc(-c3ccc(OC(F)(F)F)cc3)cc12.[K+]",
    "melting point": "280 to 282 °C"
  },
  {
    "SMILES_RECORD": "CC(=O)OCc1c(C(=O)C(=O)O)c2cc(-c3ccc(OC(F)(F)F)cc3)ccc2n1Cc1ccc(C)cc1",
    "melting point": "79 to 80 °C"
  }
]

====

# TEST_SYSTEM: recombinant human plasminogen activator inhibitor-1 (PAI-1) (Homo sapiens)
# Sequence (P05121 24-402): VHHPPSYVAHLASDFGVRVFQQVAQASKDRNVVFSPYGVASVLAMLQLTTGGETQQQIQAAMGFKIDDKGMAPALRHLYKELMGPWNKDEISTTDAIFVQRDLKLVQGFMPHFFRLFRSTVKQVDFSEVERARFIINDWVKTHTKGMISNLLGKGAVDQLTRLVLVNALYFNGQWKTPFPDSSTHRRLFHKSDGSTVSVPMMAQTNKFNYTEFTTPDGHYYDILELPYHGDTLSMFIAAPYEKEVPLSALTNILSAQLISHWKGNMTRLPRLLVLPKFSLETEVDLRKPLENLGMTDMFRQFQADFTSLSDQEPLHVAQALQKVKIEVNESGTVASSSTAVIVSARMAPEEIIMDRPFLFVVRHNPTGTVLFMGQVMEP
# ASSAY_REMARKS: Modification of the Primary Screen for the PAI-1 Inhibition (IC50)
# CONDITION_DETAILS: footnote b: determined by a modification of the Primary Screen for the PAI-1 Inhibition
# Protocol: Primary Screen for the PAI-1 Inhibition Test compounds are dissolved in DMSO at a final concentration of 10 mM, then diluted 100× in physiologic buffer. […] Following the second incubation, Spectrozyme-tPA (American Diagnostica, Greenwich, Conn.), a chromogenic substrate for tPA, is added and absorbance read at 405 nm at 0 and 60 minutes. […]
RECORDED_ENDPOINT: IC50

[
  {
    "COMPOUND": "O=C(O)C(=O)c1cn(Cc2ccccc2)c2ccc(-c3ccc(F)c(Cl)c3)cc12 [Example 15]",
    "OBSERVED_MEASUREMENT": "6.5 µM"
  },
  {
    "COMPOUND": "CC(C)(C)c1ccc(Cn2cc(C(=O)C(=O)O)c3ccc(-c4ccc(OC(F)(F)F)cc4)cc32)cc1 [Example 8]",
    "OBSERVED_MEASUREMENT": "11.2 µM"
  },
  {
    "COMPOUND": "COc1cccc(-c2ccc3c(c2)c(C(=O)C(=O)O)cn3Cc2ccc(C(C)(C)C)cc2)c1 [Example 35]",
    "OBSERVED_MEASUREMENT": "14.6 µM"
  },
  {
    "COMPOUND": "CCCCn1cc(C(=O)C(=O)O)c2cc(-c3cccc(Cl)c3)ccc21 [Example 30]",
    "OBSERVED_MEASUREMENT": "16 µM"
  },
  {
    "COMPOUND": "O=C(O)C(=O)c1cn(Cc2ccccc2)c2c(-c3ccc(F)c(Cl)c3)cccc12 [Example 18]",
    "OBSERVED_MEASUREMENT": "19.4 µM"
  },
  {
    "COMPOUND": "Cc1ccc(Cn2cc(C(=O)C(=O)O)c3cc(-c4ccccc4)ccc32)cc1 [Example 25]",
    "OBSERVED_MEASUREMENT": "14 µM"
  },
  {
    "COMPOUND": "CC(C)(C)c1ccc(Cn2cc(C(=O)C(=O)O)c3cc(-c4ccc(OC(F)(F)F)cc4)ccc32)cc1 [Example 19]",
    "OBSERVED_MEASUREMENT": "15.8 µM"
  },
  {
    "COMPOUND": "Cn1cc(C(=O)C(=O)O)c2ccc(-c3ccc(C(F)(F)F)cc3)cc21 [Example 2]",
    "OBSERVED_MEASUREMENT": "32 µM"
  },
  {
    "COMPOUND": "Cc1ccc(Cn2cc(C(=O)C(=O)O)c3cc(-c4ccc(OC(F)(F)F)cc4)ccc32)cc1 [Example 26]",
    "OBSERVED_MEASUREMENT": "6.8 µM"
  },
  {
    "COMPOUND": "O=C(O)C(=O)c1cn(Cc2ccc(F)cc2)c2ccc(-c3ccc(OC(F)(F)F)cc3)cc12 [Example 27]",
    "OBSERVED_MEASUREMENT": "5.3 µM"
  },
  {
    "COMPOUND": "CCC(CC)Cn1cc(C(=O)C(=O)O)c2cc(-c3ccc(OC(F)(F)F)cc3)ccc21 [Example 40]",
    "OBSERVED_MEASUREMENT": "8.5 µM"
  },
  {
    "COMPOUND": "Cc1cccc(-c2ccc3c(c2)c(C(=O)C(=O)O)cn3Cc2ccc(C(C)(C)C)cc2)c1 [Example 34]",
    "OBSERVED_MEASUREMENT": "6.2 µM"
  }
]

====

In this section we review reported pIC50 values for a set of compounds.
# TEST_SYSTEM: human PAI-1 (Homo sapiens, UniProt P05121)
# ASSAY_REMARKS: Antibody Assay for Determining IC50 of Inhibition of PAI-1 (active PAI-1 bound to tPA-coated plate, 33B8 antibody)
# Format: binding
pIC50: −log10 of the molar value.

[
  {
    "SMILES_RECORD": "CCCCn1cc(C(=O)C(=O)O)c2cc(-c3ccc(Cl)cc3)ccc21",
    "pIC50": 4.90
  },
  {
    "SMILES_RECORD": "O=C(O)C(=O)c1cn(Cc2ccccc2)c2cc(-c3ccc(OC(F)(F)F)cc3)ccc12",
    "pIC50": 4.76
  },
  {
    "SMILES_RECORD": "O=C(O)c1cn(Cc2ccccc2)c2ccc(-c3ccc(F)c(Cl)c3)cc12",
    "pIC50": 4.95
  }
]

====

# TEST_SYSTEM: human PAI-1 (Homo sapiens)
# ASSAY_REMARKS: Antibody Assay for Determining IC50 of Inhibition of PAI-1 (active PAI-1 bound to tPA-coated plate, 33B8 antibody)
# Type: binding
# CONDITION_DETAILS: footnote a: determined by the Antibody Assay; read-out: IC50
pIC50: −log10 of the molar value.
RECORDED_ENDPOINT: pIC50

[
  {
    "MOLECULE": "O=C(O)C(=O)c1cn(Cc2ccccc2)c2ccc(-c3cccc(OC(F)(F)F)c3)cc12",
    "OBSERVED_MEASUREMENT": 5.01
  },
  {
    "MOLECULE": "CC(C)(C)c1ccc(Cn2cc(C(=O)C(=O)O)c3cc(-c4ccc(C(C)(C)C)cc4)ccc32)cc1",
    "OBSERVED_MEASUREMENT": 5.00
  },
  {
    "MOLECULE": "O=C(O)C(=O)c1cn(Cc2ccccc2)c2cc(-c3cccc(Cl)c3)ccc12",
    "OBSERVED_MEASUREMENT": 4.70
  },
  {
    "MOLECULE": "CCCCn1cc(C(=O)C(=O)O)c2cc(-c3ccc(C(F)(F)F)cc3)ccc21",
    "OBSERVED_MEASUREMENT": 4.98
  },
  {
    "MOLECULE": "Cc1ccccc1-c1ccc2c(c1)c(C(=O)C(=O)O)cn2Cc1ccc(C(C)(C)C)cc1",
    "OBSERVED_MEASUREMENT": 4.67
  },
  {
    "MOLECULE": "O=C([O-])C(=O)c1c(CO)n(Cc2ccccc2)c2ccc(-c3ccc(OC(F)(F)F)cc3)cc12.[K+] [Example 44, potassium salt]",
    "OBSERVED_MEASUREMENT": 4.58
  },
  {
    "MOLECULE": "O=C(O)C(=O)c1cn(Cc2ccccc2)c2c(-c3ccc(OC(F)(F)F)cc3)cccc12",
    "OBSERVED_MEASUREMENT": 5.00
  },
  {
    "MOLECULE": "O=C(O)C(=O)c1cn(CC2CCCCC2)c2ccc(-c3cccc(Cl)c3)cc12",
    "OBSERVED_MEASUREMENT": 4.88
  },
  {
    "MOLECULE": "Cc1ccc(Cn2c(CO)c(C(=O)C(=O)[O-])c3cc(-c4ccc(OC(F)(F)F)cc4)ccc32)cc1.[K+] [Example 42, potassium salt]",
    "OBSERVED_MEASUREMENT": 4.34
  },
  {
    "MOLECULE": "O=C(O)C(=O)c1cn(Cc2ccc(F)cc2)c2ccc(-c3ccccc3)cc12",
    "OBSERVED_MEASUREMENT": 4.46
  },
  {
    "MOLECULE": "CC(=O)OCc1c(C(=O)C(=O)O)c2cc(-c3ccc(OC(F)(F)F)cc3)ccc2n1Cc1ccccc1",
    "OBSERVED_MEASUREMENT": 4.76
  },
  {
    "MOLECULE": "CC(C)(C)c1ccc(Cn2cc(C(=O)C(=O)O)c3cc(-c4cccc(Cl)c4)ccc32)cc1",
    "OBSERVED_MEASUREMENT": 4.79
  },
  {
    "MOLECULE": "O=C(O)C(=O)c1cn(Cc2ccccc2)c2ccc(-c3cc(C(F)(F)F)cc(C(F)(F)F)c3)cc12",
    "OBSERVED_MEASUREMENT": 4.94
  }
]
